The values you see were collected from patent US20240199611A1.

test system: Mycobacterium tuberculosis strain EH4.0 expressing green-fluorescent protein (GFP); assay: microbe, parasite or virus in culture; assay type: cell-based; settings: Test 1 (and/or Test 2), read-out: pIC50 (converted)
Labelling: IC50 reported below 3 nM becomes Fulfilled; at or above becomes Not fulfilled.

Request: # TODO verify IC50 < 3 nM strictly for this compound: CCc1nc2ccc(C)cn2c1C(=O)NCc1ccc(N2CCN(S(=O)(=O)C(F)(F)F)C(C3CCC3)=N2)cc1 [Compound 237]
Result: Not fulfilled

Request: # TODO verify IC50 < 3 nM strictly for this compound: CCc1nc2ccc(C)cn2c1C(=O)NCc1cnc(N2CCN(S(=O)(=O)C(F)(F)F)C(C(C)C)=N2)c(F)c1 [Compound 246]
Result: Fulfilled

Request: # TODO verify IC50 < 3 nM strictly for this compound: CCC1=NN(c2ccc(CNC(=O)c3c(CC)nc4ncc(C)cn34)cc2F)CCN1S(=O)(=O)C(F)(F)F [Compound 234]
Result: Fulfilled

Request: # TODO verify IC50 < 3 nM strictly for this compound: CCc1nc2sc(Cl)cn2c1C(=O)NCc1ccc(N2CCN(S(=O)(=O)C(F)(F)F)C=N2)c(F)c1 [Compound 135]
Result: Not fulfilled
